- Tested on: HEK293
- Protocol Notes: Selectivity index, ratio of Ki for human recombinant CB1 receptor expressed in HEK293 cell membranes to Ki for human recombinant CB2 receptor expressed in HEK293 cell membranes
- Type: cell-based
Measured Metric: Ratio Ki
Give bare numbers.

Molecule: O=C(NC1CCCCCC1)c1cccnc1OCc1ccccc1
Ratio Ki: 4
--
Molecule: O=C(NC1CCCCCC1)c1cccn(Cc2ccccc2)c1=O
Ratio Ki: 7
--
Molecule: CCCCn1cccc(C(=O)NC2CCC(C)CC2)c1=O (stereo not given)
Ratio Ki: 15.6

Respectfully, I request Ratio Ki for each entry included below.
1. CC1CCC(NC(=O)c2cccn(Cc3ccc(F)cc3)c2=O)CC1 (stereo not given)
2. CC1CCC(NC(=O)c2cccnc2OCc2ccc(F)cc2)CC1 (stereo not given)
3. COc1ccc(-c2cc(C(=O)NC3CCCCCC3)c(=O)n(Cc3ccc(F)cc3)c2)cc1
4. O=C(NC1CCCCCC1)c1cc(Br)cn(Cc2ccc(F)cc2)c1=O
5. O=C(NC1CCCCCC1)c1cccn(Cc2cccc(I)c2)c1=O
6. O=C(NC1CCCCCC1)c1cc(-c2ccccc2)cn(Cc2ccc(F)cc2)c1=O
7. CC1CCC(NC(=O)c2cccn(Cc3ccccc3)c2=O)CC1 (stereo not given)

[14.6, 11, 63, 4, 4.6, 29, 7.3]

Record Ratio Ki per entry; entries follow.
1. O=C(NC1CCCCCC1)c1cccn(Cc2ccc(F)cc2)c1=O
2. O=C(NC1CCCCCC1)c1cc(/C=C/c2ccccc2)cn(Cc2ccc(F)cc2)c1=O
3. CCOC(=O)/C=C/c1cc(C(=O)NC2CCCCCC2)c(=O)n(Cc2ccc(F)cc2)c1

[5.5, 3, 1.8]

Go through the items and report each one's Ratio Ki.
1. CCCCn1cc(Br)cc(C(=O)NC2CCCCCC2)c1=O
2. O=C(NC1CCCCCC1)c1cc(-c2ccc(F)cc2)cn(Cc2ccc(F)cc2)c1=O
3. O=C(NC1CCCCCC1)c1cccn(Cc2ccc(Cl)cc2)c1=O

1. 4.5
2. 8.6
3. 13.1

Can you give me Ratio Ki for all of these, one by one?
1. O=C(NC1CCCCCC1)c1cc(Br)cn(CCN2CCOCC2)c1=O
2. CC1CCC(NC(=O)c2cccnc2OCc2ccccc2)CC1 (stereo not given)
3. O=C(NC1CCCCCC1)c1cc(-c2ccc(F)cc2)cn(CCN2CCOCC2)c1=O
4. O=C(NC1CCCCCC1)c1cccn(Cc2ccc(I)cc2)c1=O

1: 3.7; 2: 5.2; 3: 43.4; 4: 6.8

* * *

- Measurement Target: Cannabinoid receptor 2 (Homo sapiens)
- Protocol Notes: Displacement of [3H]CP55,940 from human recombinant CB2 receptor expressed in HEK293 cell membranes after 90 mins
Assignment: determine reported pKi for the given molecules.
Answers are plain numbers, as −log10 of the molar value.

Molecule: O=C(NC1CCCCCC1)c1cc(/C=C/c2ccccc2)cn(Cc2ccc(F)cc2)c1=O
pKi: 8.10

For each entry beneath this line, provide reported pKi.
1. CCCCOc1ncc(Br)cc1C(=O)NC1CCCCCC1
2. CCCCn1cccc(C(=O)NC2CCC(C)CC2)c1=O (stereo not given)
3. CC1CCC(NC(=O)c2cccnc2OCc2ccc(F)cc2)CC1 (stereo not given)

[6.40, 6.98, 7.10]

* * *

- Measurement Target: Cannabinoid receptor 2 (Homo sapiens, UniProt P34972)
- Sequence (P34972 whole entry): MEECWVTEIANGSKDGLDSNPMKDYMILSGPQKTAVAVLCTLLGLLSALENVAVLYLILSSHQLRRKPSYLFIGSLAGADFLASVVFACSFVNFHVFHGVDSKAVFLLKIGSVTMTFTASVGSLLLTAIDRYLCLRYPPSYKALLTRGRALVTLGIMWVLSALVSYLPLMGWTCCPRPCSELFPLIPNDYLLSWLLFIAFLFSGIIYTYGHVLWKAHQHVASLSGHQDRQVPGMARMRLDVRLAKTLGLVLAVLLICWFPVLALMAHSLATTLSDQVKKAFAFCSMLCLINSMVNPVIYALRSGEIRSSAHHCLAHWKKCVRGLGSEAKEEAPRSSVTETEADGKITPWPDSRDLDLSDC
- Protocol Notes: Inverse agonist activity at human CB2 receptor expressed in CHO membranes by [35S]GTPgammaS binding assay
Measured Metric: pIC50
Give bare numbers, as −log10 of the molar value.

Returns the measured pIC50 for the input molecule. Input: `O=C(NC1CCCCCC1)c1cc(-c2ccccc2)cn(Cc2ccc(F)cc2)c1=O`
8.80

* * *

- Measurement Target: UniProt P20272
- Sequence (P20272 whole entry): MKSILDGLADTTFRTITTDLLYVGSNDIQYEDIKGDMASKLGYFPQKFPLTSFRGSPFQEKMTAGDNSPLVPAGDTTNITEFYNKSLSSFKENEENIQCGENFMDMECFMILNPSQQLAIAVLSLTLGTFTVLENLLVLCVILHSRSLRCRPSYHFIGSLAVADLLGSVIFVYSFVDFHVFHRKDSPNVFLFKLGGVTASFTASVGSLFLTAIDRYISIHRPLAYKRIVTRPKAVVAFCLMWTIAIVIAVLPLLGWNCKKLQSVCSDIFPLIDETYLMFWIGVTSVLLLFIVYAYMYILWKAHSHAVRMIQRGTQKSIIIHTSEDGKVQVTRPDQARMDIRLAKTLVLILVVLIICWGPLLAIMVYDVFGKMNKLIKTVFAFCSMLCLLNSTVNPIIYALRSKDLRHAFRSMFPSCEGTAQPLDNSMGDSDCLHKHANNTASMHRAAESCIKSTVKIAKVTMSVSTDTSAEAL
- Protocol Notes: Agonist activity at CB1 receptor in rat cerebellar membranes by [35S]GTPgammaS binding assay
Measured Metric: pEC50
Give bare numbers, as −log10 of the molar value.

# query: pEC50 of entry `O=C(NC1CCCCCC1)c1cccn(Cc2ccc(F)cc2)c1=O`
5.80

* * *

- Measurement Target: UniProtKB P21554
- Protocol Notes: Displacement of [3H]CP55,940 from human recombinant CB1 receptor expressed in HEK293 cell membranes after 90 mins
For each of the molecules below, state its pKi.
Give bare numbers, as −log10 of the molar value.

Dear colleague, could you please provide pKi for the molecules listed below?
1. CCCCn1cccc(C(=O)NC2CCC(C)CC2)c1=O (stereo not given)
2. CCOC(=O)/C=C/c1cc(C(=O)NC2CCCCCC2)c(=O)n(Cc2ccc(F)cc2)c1

5.79
7.61

Please look at the items below and tell me pKi for each one, in order.
1. O=C(NC1CCCCCC1)c1cc(-c2ccccc2)cn(Cc2ccc(F)cc2)c1=O
2. COc1ccc(-c2cc(C(=O)NC3CCCCCC3)c(=O)n(Cc3ccc(F)cc3)c2)cc1
3. O=C(NC1CCCCCC1)c1cccn(Cc2cccc(I)c2)c1=O
4. O=C(NC1CCCCCC1)c1cccn(Cc2ccc(Cl)cc2)c1=O
5. O=C(NC1CCCCCC1)c1cc(Br)cn(Cc2ccc(F)cc2)c1=O
6. CC1CCC(NC(=O)c2cccn(Cc3ccc(F)cc3)c2=O)CC1 (stereo not given)
7. CC1CCC(NC(=O)c2cccnc2OCc2ccc(F)cc2)CC1 (stereo not given)

[7.46, 7.20, 5.74, 7.26, 8.06, 7.15, 6.05]

Give pKi for each of the items listed below.
1. CCCCn1cc(Br)cc(C(=O)NC2CCCCCC2)c1=O
2. O=C(NC1CCCCCC1)c1cc(-c2ccc(F)cc2)cn(CCN2CCOCC2)c1=O

[7.64, 5.56]

For each of the items listed, what is its pKi?
1. O=C(NC1CCCCCC1)c1cc(Br)cn(CCN2CCOCC2)c1=O
2. CC1CCC(NC(=O)c2cccn(Cc3ccccc3)c2=O)CC1 (stereo not given)

1. 6.61
2. 6.41

* * *

- Measurement Target: UniProt:P34972
- Protocol Notes: Agonist activity at human CB2 receptor expressed in CHO membranes by [35S]GTPgammaS binding assay
Measured Metric: pEC50
Numbers only, as −log10 of the molar value.

Please look up its pEC50: `O=C(NC1CCCCCC1)c1cccn(Cc2ccc(F)cc2)c1=O`
8.20

* * *

Answer each item with its documented Ki.
- Measurement Target: Cannabinoid receptor 2 (Homo sapiens, UniProt P34972)
- Protocol Notes: Displacement of [3H]CP55,940 from human recombinant CB2 receptor expressed in HEK293 cell membranes after 90 mins
One number for each entry, in nM.

Compound: O=C(NC1CCCCCC1)c1cc(Br)cn(CCN2CCOCC2)c1=O
Ki [nM]: 65
--
Compound: COc1ccc(-c2cc(C(=O)NC3CCCCCC3)c(=O)n(Cc3ccc(F)cc3)c2)cc1
Ki [nM]: 1
--
Compound: CC1CCC(NC(=O)c2cccnc2OCc2ccccc2)CC1 (stereo unspecified)
Ki [nM]: 594
--
Compound: O=C(NC1CCCCCC1)c1cccn(Cc2ccc(I)cc2)c1=O
Ki [nM]: 187
--
Compound: O=C(NC1CCCCCC1)c1cccn(Cc2cccc(I)c2)c1=O
Ki [nM]: 397

Dear colleague, could you send me Ki for each of the items below? Thanks.
1. CC1CCC(NC(=O)c2cccn(Cc3ccccc3)c2=O)CC1 (stereo unspecified)
2. O=C(NC1CCCCCC1)c1cc(Br)cn(Cc2ccc(F)cc2)c1=O
3. CCOC(=O)/C=C/c1cc(C(=O)NC2CCCCCC2)c(=O)n(Cc2ccc(F)cc2)c1
4. O=C(NC1CCCCCC1)c1cc(-c2ccc(F)cc2)cn(Cc2ccc(F)cc2)c1=O

53
2.2
13.7
2.8

Go through the list and state Ki for each entry.
1. O=C(NC1CCCCCC1)c1cccn(Cc2ccccc2)c1=O
2. CCCn1cccc(C(=O)NC2CCC(C)CC2)c1=O (stereo unspecified)
3. O=C(NC1CCCCCC1)c1cc(-c2ccccc2)cn(Cc2ccc(F)cc2)c1=O
4. CCOC(=O)CCCn1cccc(C(=O)NC2CCCCCC2)c1=O

1. 8
2. 583
3. 1.2
4. 1830

Batch lookup, Ki per entry.
1. O=C(NC1CCCCCC1)c1cccnc1OCc1ccccc1
2. O=C(NC1CCCCCC1)c1cccn(Cc2ccc(Cl)cc2)c1=O
3. CCCCn1cc(Br)cc(C(=O)NC2CCCCCC2)c1=O
4. CC1CCC(NC(=O)c2cccn(Cc3ccc(F)cc3)c2=O)CC1 (stereo unspecified)
5. O=C(NC1CCCCCC1)c1cc(-c2ccc(F)cc2)cn(CCN2CCOCC2)c1=O

1: 481; 2: 4.2; 3: 5.1; 4: 4.8; 5: 63

* * *

- Measurement Target: Cannabinoid receptor 1 (Homo sapiens)
- Sequence (P21554 whole entry): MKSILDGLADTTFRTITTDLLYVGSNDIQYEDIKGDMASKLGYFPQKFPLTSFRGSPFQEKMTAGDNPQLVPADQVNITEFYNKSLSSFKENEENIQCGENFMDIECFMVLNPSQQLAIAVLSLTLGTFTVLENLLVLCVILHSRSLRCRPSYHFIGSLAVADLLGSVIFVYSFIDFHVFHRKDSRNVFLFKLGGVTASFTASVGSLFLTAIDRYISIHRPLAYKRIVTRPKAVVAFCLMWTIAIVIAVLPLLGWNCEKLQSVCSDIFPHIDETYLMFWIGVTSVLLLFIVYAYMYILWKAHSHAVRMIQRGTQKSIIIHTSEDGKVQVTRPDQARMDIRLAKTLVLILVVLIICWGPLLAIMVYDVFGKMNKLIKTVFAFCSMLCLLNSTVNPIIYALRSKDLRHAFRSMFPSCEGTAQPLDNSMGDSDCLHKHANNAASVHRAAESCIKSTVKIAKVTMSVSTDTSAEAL
- Protocol Notes: Displacement of [3H]CP55,940 from human recombinant CB1 receptor expressed in HEK293 cell membranes after 90 mins
Measured Metric: Ki (µM)
One number for each entry, in µM.

Would you please look over these solved cases?
Compound: O=C(NC1CCCCCC1)c1cccn(Cc2ccc(I)cc2)c1=O
Measurement Target: Cannabinoid receptor 1 (Homo sapiens)
Measurement Unit: µM
Ki: 1.27
--
Compound: O=C(NC1CCCCCC1)c1cccnc1OCc1ccccc1
Measurement Target: Cannabinoid receptor 1 (Homo sapiens)
Measurement Unit: µM
Ki: 1.92
--
Compound: CC1CCC(NC(=O)c2cccnc2OCc2ccccc2)CC1 (configuration not stated)
Measurement Target: Cannabinoid receptor 1 (Homo sapiens)
Measurement Unit: µM
Ki: 3.09
--
Compound: O=C(NC1CCCCCC1)c1cccn(Cc2ccccc2)c1=O
Measurement Target: Cannabinoid receptor 1 (Homo sapiens)
Measurement Unit: µM
Ki: 0.056
--
Compound: O=C(NC1CCCCCC1)c1cc(/C=C/c2ccccc2)cn(Cc2ccc(F)cc2)c1=O
Measurement Target: Cannabinoid receptor 1 (Homo sapiens)
Measurement Unit: µM
Ki: 0.024

// map `O=C(NC1CCCCCC1)c1cc(-c2ccc(F)cc2)cn(Cc2ccc(F)cc2)c1=O` to recorded Ki (system: Cannabinoid receptor 1 (Homo sapiens))
0.024
